- Read-out: Interleukin-8 (IL8), CXCL8 (gene 3576)
- ASSAY_SUMMARY: BSK_SAg_IL8: BioMAP Diversity Plus: SAg Assay for Interleukin-8 (IL8) Biomarker Activity (AID 2283094)
- SETTINGS: primary human HUVEC with PBMC; actives raise or lower the signal
Active and inactive are the calls of the source. How the source made its calls: active means hit-call score of the fitted dose curve at least 0.9, where 1 is the maximum; inactive means score below 0.9.
Valid outcomes are listed here; reply with one: 1 (yes) = active, 0 (no) = inactive

Query: Could you please tell me the result logged for CC(=O)NC1(c2cccc(F)c2)CCN(CC[C@@]2(c3ccc(Cl)c(Cl)c3)CN(c3ccccc3)C(=O)CO2)CC1 in this assay?
Result: 1 (yes)

Query: Please let me know the test result on file for O=[N+]([O-])c1ccc(O)cc1 .
Result: 0 (no)

Query: Would you mind telling me which call this test gave CC(=O)CC(C)(C)O ?
Result: 0 (no)

Query: // outcome(item) with item = O=C(O)c1ccccc1C(c1ccc(O)cc1)c1ccc(O)cc1
Result: 0 (no)

Query: What was the test verdict on NCC(F)(F)C(F)(F)C(F)(F)C(F)(F)C(F)(F)C(F)(F)C(F)(F)F ?
Result: 0 (no)

Query: Given Oc1cccc(O)c1 , state the outcome it received in this test.
Result: 0 (no)

Query: Please let me know the test result on file for CCCCCCCCCCCCN1CCCC1=O .
Result: 1 (yes)

Query: Dear all, I need the recorded test outcome for CCCCC(CC)COC(=O)CCCCC(=O)OCc1ccccc1 (centres undefined) , thank you.
Result: 0 (no)

Query: How did this test come out for CCCOc1sc(C(=O)N2CCC(c3cc(CN)ccc3F)CC2)c(C)c1Br ?
Result: 1 (yes)
